# system.under.test: UniProtKB P34972
# Sequence (P34972 whole entry): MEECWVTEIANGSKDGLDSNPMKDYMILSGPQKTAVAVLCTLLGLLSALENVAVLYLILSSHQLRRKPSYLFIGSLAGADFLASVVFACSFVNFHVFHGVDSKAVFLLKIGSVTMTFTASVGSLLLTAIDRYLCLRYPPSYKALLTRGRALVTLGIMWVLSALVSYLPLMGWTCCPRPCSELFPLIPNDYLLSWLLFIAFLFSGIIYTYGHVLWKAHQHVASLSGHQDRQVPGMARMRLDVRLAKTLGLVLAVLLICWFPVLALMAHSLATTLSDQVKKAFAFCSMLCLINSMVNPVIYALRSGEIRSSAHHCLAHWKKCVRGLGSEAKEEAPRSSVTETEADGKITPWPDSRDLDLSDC
# experiment.description: Binding affinity to human recombinant CB2 receptor
measurement.kind: pEC50
pEC50 here is simply -log10 of the concentration when that concentration is written in mol/L.

Query string: GET /values?readout=pEC50&item= CCCCCn1c(C)c(Br)c(C(=O)c2cccc3ccccc23)c1C
Result string: 8.17

----------
# Tested on: Human immunodeficiency virus
# experiment.description: Antiviral activity against HIV-CBL 20 infected in MT-4 cells assessed as viral replication measured after 4 days by ELISA
# Format: functional, organism-based
# conditions: Human immunodeficiency virus 1, CBL 20, MT4, 96 h
In this section we review reported EC50 values for a set of compounds.
Express it in µM; write the number only.

INSERT INTO assay_data (chem_smiles, system_under_test, unit_tag, measured) VALUES
  ('O=[N+]([O-])c1ccccc1S(=O)(=O)c1ccccc1', 'Human immunodeficiency virus', 'µM', 3.4);

Next, consider the following compound.
Query string: GET /values?readout=EC50&item= CCOC(=O)c1cccn1S(=O)(=O)c1ccccc1[N+](=O)[O-]
Result string: 15.1

----------
# Test system: Pseudomonas aeruginosa
# experiment.description: Antibacterial activity against Pseudomonas aeruginosa assessed as reduction in bacterial growth by broth microdilution method
# Format: functional, organism-based
measurement.kind: pIC50
pIC50 here is simply -log10 of the concentration when that concentration is written in mol/L.

INSERT INTO measurements (compound, measurement_kind, measured) VALUES
  ('Cc1c[nH]c(C(=O)N/N=C(/N=N/c2ccccc2)c2ccccc2O)c1C', 'pIC50', 4.81);

Next, consider the following compound.
Query string: Short answer please: pIC50, Pseudomonas aeruginosa, entry CN(C)[C@@H]1C(O)=C(C(N)=O)C(=O)[C@@]2(O)C(O)=C3C(=O)c4c(O)cccc4[C@@](C)(O)[C@H]3C[C@@H]12 [TETRACYCLINE]
Result string: 5.90
